Source: ChEMBL document CHEMBL1135282

IC50 values, listed per item
- Experimental system: Neuropeptide Y receptor type 5 (Homo sapiens)
- Sequence (Q15761 whole entry): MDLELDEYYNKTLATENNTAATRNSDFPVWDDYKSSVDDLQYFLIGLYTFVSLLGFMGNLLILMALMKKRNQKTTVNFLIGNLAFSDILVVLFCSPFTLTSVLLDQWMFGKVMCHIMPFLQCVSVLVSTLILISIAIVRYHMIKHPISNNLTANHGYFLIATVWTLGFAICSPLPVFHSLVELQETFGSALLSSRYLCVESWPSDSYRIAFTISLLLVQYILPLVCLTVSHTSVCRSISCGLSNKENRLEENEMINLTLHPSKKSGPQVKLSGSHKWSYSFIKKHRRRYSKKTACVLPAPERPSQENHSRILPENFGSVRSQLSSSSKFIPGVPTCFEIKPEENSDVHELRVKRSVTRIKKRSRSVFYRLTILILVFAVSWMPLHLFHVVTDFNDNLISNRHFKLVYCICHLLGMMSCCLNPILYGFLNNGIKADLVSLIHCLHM
- Method summary: Inhibitory concentration of total specific binding of [125I]- -PYY to HEK 293 cells transfected with Human NPY-Y5 cDNA (compound prepared by manual synthesis technique)
- Type: cell-based, HEK293

Take a look at these entries with their results.
Input: Which IC50 is reported for this compound? Cc1ccc2nc(NC(=O)C3CCN(C(=O)Cn4c(=O)sc5ccc(Cl)cc54)CC3)sc2c1
Output: 10 nM

Input: Which IC50 is reported for this compound? CC(=O)c1cccc(NC(=O)C2CCN(C(=O)Cn3c(=O)sc4ccc(Cl)cc43)CC2)c1
Output: 0.59 nM

***
Input: Which IC50 is reported for this compound? O=C(Nc1nc2cc(Cl)ccc2o1)C1CCN(C(=O)Cn2c(=O)sc3ccc(Cl)cc32)CC1
Output: 3.8 nM

Input: Which IC50 is reported for this compound? O=C(NCC(O)c1ccccc1)C1CCN(C(=O)Cn2c(=O)sc3ccc(Cl)cc32)CC1 (stereo not given)
Output: 1.2 nM

Input: Which IC50 is reported for this compound? O=C(Nc1ccc(CCO)cc1)C1CCN(C(=O)Cn2c(=O)sc3ccc(Cl)cc32)CC1
Output: 1.7 nM
